Target: T1, canine NGF tagged at the C-terminus with the Flag tag (canine, UniProt A0A8I3PYI3 122-241)
T1 construct: mature; Expressed with baculovirus technology; also called feline NGF (processed form identical)
T1 sequence (A0A8I3PYI3 entry or part of it): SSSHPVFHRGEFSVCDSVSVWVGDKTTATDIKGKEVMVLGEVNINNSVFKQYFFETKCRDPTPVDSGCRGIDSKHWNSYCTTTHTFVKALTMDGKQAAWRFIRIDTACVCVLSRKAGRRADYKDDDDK
Assay: SPR off-rate assay, Fab-SASA on BSA chip
parameter: Ratio (KD) WT/clones
Lab note: record the figure alone, no unit after it.

get_value(item= AHF17605 (Fab, V domains shown, not shown: small tags and cut ends, Fab-SASA, combinatorial library) VH: DVQLVESGGDLVKPGGSLRLTCVASGLSLTSSSMVWVRQAPGKGLQWVSTIYSNGGTYYTDSVKGRFTISKDNAENTLYLQMNNLKTEDTATYYCAQIYYYDADYLHWYFDFWGQGALVTVSS VL: EIQMTQSPTSLSASVGDRVTITCRASEGIANNLSWYQQTPGKAPKLLIYATSILHSGVPSRFSGSGSGTDFTLTISSLQPEDFATYYCQQGYKWPLTFGGGTKLEITR , readout=Ratio (KD) WT/clones) returns 4.21

get_value(item= AHF17607 (Fab, V domains shown, not shown: small tags and cut ends) VH: DVQLVESGGDLVKPGGSLRLTCVASGLSLTSSSMVWVRQAPGKGLQWVSTIYSNRGTYYTDSVKGRFTISKDNAENTLYLQMNNLKTEDTATYYCASIYYYDADYLHWYFDEWGQGALVTVSS VL: EIQMTQSPTSLSASVGDRVTITCRASEGISNNLSWYQQTPGKAPKLLIYATSILHSGVPSRFSGSGSGTDFTLTISSLQPEDFATYYCQQGYKWPLTFGGGTKLEITR , readout=Ratio (KD) WT/clones) returns 781

get_value(item= AHF17594 (Fab, V domains shown, not shown: small tags and cut ends) VH: DVQLVESGGDLVKPGGSLRLTCVASGLSLTSSSMVWVRQAPGKGLQWVSTIYSNGGTYYTDSVKGRFTISKDNAENTLYLQMNNLKTEDTATYYCASIYYYDADYLHWYFDFWGQGALVTVSS VL: EIQMTQSPTSLSASVGDRVTITCRASEGIANNLSWYQQTPGKAPKLLIYATSVLHSGVPSRFSGSGSGTDFTLTISSLQPEDFATYYCQQGYKWPLTFGGGTKLEITR , readout=Ratio (KD) WT/clones) returns 3.71
